# EXPERIMENTAL TARGET: trypsin
# PROTOCOL DETAILS: inhibition of the amidolytic activity of trypsin (chromogenic substrate S-2251)
# PROTOCOL CONDITIONS: substrate S-2251 in 200 and 750 μM final concentration
Structures can show the parent of a compound that is named as a salt.
QUANTITY MEASURED: log10(Ki) (log10 of the value in µM)
Plainly stated, the numbers are log10 of Ki given in µM.

[[record]]
compound = "N=C(N)N1CCC[C@@H](CNC(=O)C[C@H](NS(=O)(=O)c2ccc3ccccc3c2)C(=O)N(CC(=O)O)Cc2ccccc2Cl)C1 [Example 26b]"
quantity_measured = "log10(Ki)"
measured_value = -0.89

[[record]]
compound = "CCOC(=O)CCN(C(=O)[C@H](CC(=O)NC[C@@H]1CCCN(C(=N)N)C1)NS(=O)(=O)c1ccc2ccccc2c1)C1CC1 [Example 2k, hydrochloride]"
quantity_measured = "log10(Ki)"
measured_value = 0.89

[[record]]
compound = "CC(=O)O.CC1CNc2c(cccc2S(=O)(=O)N[C@@H](CC(=O)NC[C@@H]2CCCN(C(=N)N)C2)C(=O)N(CC(=O)O)C2CC2)C1 (stereo partly drawn) [Example 16]"
quantity_measured = "log10(Ki)"
measured_value = 0.32

[[record]]
compound = "C=CCN(CCC(=O)O)C(=O)[C@H](CC(=O)NC[C@@H]1CCCN(C(=N)N)C1)NS(=O)(=O)c1ccc2ccccc2c1 [Example 4l]"
quantity_measured = "log10(Ki)"
measured_value = 0.70

[[record]]
compound = "CCCN(CC(=O)O)C(=O)[C@H](CC(=O)NC[C@@H]1CCCN(C(=N)N)C1)NS(=O)(=O)c1ccc2ccccc2c1 [Example 5]"
quantity_measured = "log10(Ki)"
measured_value = 0.63


Note: attention shifts to another entry.
Field: log10(Ki) (trypsin). Entry: CC(C)(C)c1ccc(S(=O)(=O)N[C@@H](CC(=O)NC[C@@H]2CCCN(C(=N)N)C2)C(=O)N(CC(=O)O)C2CC2)cc1 [Example 15b]
0.32
